# testName: Cytotoxicity against HEK293T cells assessed as cell viability at 50 uM by CellTiter-Glo assay relative to control
# conditionDescription: human
Positions of bridges follow the written chain, without caps; N, C: chain ends. Non-standard residues stand in square brackets, D forms with d. Residues, ends and D or L forms follow the SMILES beside them. *: point of attachment. X1 = O=C(OCCCS*)Oc1ccc2nc(C3=N[C@@H](C(=O)O)CS3)sc2c1; X2 = CC(=O)[C@H]1CSC(c2nc3ccc(OC(=O)OCCCS*)cc3s2)=N1; Mpa = O=C(O)CCS

# compound, viability at 50 µM
data = [
    ("CC(C)C[C@H](NC(=O)[C@H](CCCCN)NC(=O)CCSSCCCOC(=O)Oc1ccc2nc(C3=N[C@@H](C(=O)O)CS3)sc2c1)C(=O)N[C@@H](Cc1ccccc1)C(=O)N[C@@H](CC(N)=O)C(=O)N[C@@H](CCCCN)C(=O)N[C@@H](CCC(N)=O)C(=O)N[C@@H](CCC(=O)O)C(=O)N[C@@H](Cc1c[nH]c2ccccc12)C(=O)N[C@H](C(=O)N[C@@H](CC(N)=O)C(N)=O)[C@@H](C)O ([Mpa](X1)KLFNKQEWTN-NH2)", "99.4%"),
    ("CC(C)C[C@H](NC(=O)[C@H](CCCCN)NC(=O)[C@H](Cc1c[nH]c2ccccc12)NC(=O)[C@H](CCCNC(=N)N)NC(=O)[C@H](CCCCN)NC(=O)[C@H](CC(C)C)NC(=O)[C@@H](NC(=O)[C@H](CCCNC(=N)N)NC(=O)[C@@H](NC(=O)[C@H](CCCCN)NC(=O)CCSSCCCOC(=O)Oc1ccc2nc(C3=N[C@@H](C(=O)O)CS3)sc2c1)[C@@H](C)O)C(C)C)C(N)=O ([Mpa](X1)KTRVLKRWKL-NH2)", "80.1%"),
    ("CC(C)C[C@H](NC(=O)[C@H](CCCCN)NC(=O)[C@H](Cc1c[nH]c2ccccc12)NC(=O)[C@H](CCCNC(=N)N)NC(=O)[C@H](CCCCN)NC(=O)[C@H](CC(C)C)NC(=O)[C@@H](NC(=O)[C@H](CCCNC(=N)N)NC(=O)[C@@H](NC(=O)CCSSCCCOC(=O)Oc1ccc2nc(C3=N[C@@H](C(=O)O)CS3)sc2c1)[C@@H](C)O)C(C)C)C(=O)N[C@@H](Cc1ccccc1)C(N)=O ([Mpa](X1)TRVLKRWKLF-NH2)", "88.5%"),
    ("CC(C)C[C@H](NC(=O)[C@H](CCCCN)NC(=O)[C@H](Cc1c[nH]c2ccccc12)NC(=O)[C@H](CCCNC(=N)N)NC(=O)CCSSCCCOC(=O)Oc1ccc2nc(C3=N[C@@H](C(=O)O)CS3)sc2c1)C(=O)N[C@@H](Cc1ccccc1)C(=O)N[C@@H](CC(N)=O)C(=O)N[C@@H](CCCCN)C(=O)N[C@@H](CCC(N)=O)C(=O)N[C@@H](CCC(=O)O)C(=O)N[C@@H](Cc1c[nH]c2ccccc12)C(N)=O ([Mpa](X1)RWKLFNKQEW-NH2)", "102%"),
    ("CC(=O)N[C@@H](CSSCCCOC(=O)Oc1ccc2nc(C3=N[C@@H](C(C)=O)CS3)sc2c1)C(=O)N[C@H]1CSSC[C@@H](C(=O)N[C@@H](CCCNC(=N)N)C(=O)N[C@@H](CCCNC(=N)N)C(=O)N[C@@H](CCCNC(=N)N)C(N)=O)NC(=O)[C@H](Cc2c[nH]c3ccccc23)NC(=O)[C@@H]2CCCN2C(=O)[C@H](Cc2ccc(O)cc2)NC(=O)CNC(=O)[C@H](Cc2cnc[nH]2)NC(=O)[C@H](Cc2ccc(O)cc2)NC(=O)[C@H](CCCCN)NC(=O)[C@H](C)NC(=O)[C@H](C(C)C)NC1=O (Ac-C(X2)CVAKYHGYPWCRRR-NH2; disulfide 2-12)", "126%"),
]
